Reported GI50 is given for each of the following molecules.
System: MOLM-14
Test: Cell growth assay, MOLM-14 AML cell line
Type: cell-based, human
Conditions: Homo sapiens, MOLM-14, 240 h; day 10; cells passaged, fresh compound added on days 3 and 7; read-out: MOL M14 G150 day 10
# unit: nM | format: bare number

molecule: CN(CCF)[C@H]1CCC2=CC3=CC[C@]4(C)C(c5ccc6ccncc6c5)CC[C@H]4[C@@]34CC[C@]2(C1)O4 (stereo partly drawn) [29B, β-2-fluoroethylmethylamine]
recorded-measurement: 14
--
molecule: C[C@]12CC=C3C=C4CC[C@H](N5CCC5)C[C@]45CCC3(O5)[C@@H]1CC[C@@H]2c1ccc2ccncc2c1 [18B, β-azetidine]
recorded-measurement: 13

Alright, here's another molecule for you.
Recorded GI50 of CC1(C)NC(=O)N([C@@H]2CCC3=CC4=CC[C@]5(C)[C@@H](c6ccc7ccncc7c6)CC[C@H]5C45CC[C@]3(C2)O5)C1=O [74A, α-dimethylhydantoin] , please.
800
